assay: Cytotoxicity against human HepG2 cells assessed as cell growth inhibition after 48 hrs by MTT assay; format: functional, cell-based; details: HepG2, 48 h
Endpoint Name: pIC50
FYI, pIC50 means -log10 of a concentration in mol per litre.

Illustrative cases are given below, each with its answer.
Documented pIC50 of COc1cc(/C=C/C(=O)c2ccc(OCCO[C@H]3O[C@@H]4O[C@@]5(C)CC[C@H]6[C@H](C)CC[C@@H]([C@H]3C)[C@@]46OO5)cc2)cc(OC)c1OCCO[C@H]1O[C@@H]2O[C@@]3(C)CC[C@H]4[C@H](C)CC[C@@H]([C@H]1C)[C@@]24OO3 : 5.40

// sample C[C@H]1[C@@H](O)O[C@@H]2O[C@@]3(C)CC[C@H]4[C@H](C)CC[C@@H]1[C@@]24OO3 , its pIC50 was 4.54

The compound listed as C[C@H]1[C@@H](OCCOc2ccc(/C=C/C(=O)c3ccc(O)cc3)cc2)O[C@@H]2O[C@@]3(C)CC[C@H]4[C@H](C)CC[C@@H]1[C@@]24OO3 shows pIC50 equal to 5.15

Reported pIC50 ( COc1cccc2c1C(=O)c1c(O)c3c(c(O)c1C2=O)C[C@@](O)(C(=O)CO)C[C@@H]3O[C@H]1C[C@H](N)[C@H](O)[C@H](C)O1 ) = 6.27

So for C[C@H]1[C@@H](OCCOc2cccc(C(=O)/C=C/c3ccc(O)cc3)c2)O[C@@H]2O[C@@]3(C)CC[C@H]4[C@H](C)CC[C@@H]1[C@@]24OO3 , the logged pIC50 turned out to be 4.82

Could you now look at the following compound, please?
So for C[C@H]1[C@@H](OCCOc2ccc(/C=C/C(=O)c3ccco3)cc2)O[C@@H]2O[C@@]3(C)CC[C@H]4[C@H](C)CC[C@@H]1[C@@]24OO3 , the logged pIC50 turned out to be 4.66

----------
test: Cytotoxicity against human MIAPaCa2 cells assessed as cell growth inhibition at 30 uM after 48 hrs by MTT assay; format: functional; settings: MIA PaCa-2, 48 h, read-out: GI
This section presents molecules with their documented inhibition of growth at 30 µM values.
Enter your answer as a number in %; do not include the unit.

Item: COc1ccc(/C=C/C(=O)c2ccc(OCCO[C@H]3O[C@@H]4O[C@@]5(C)CC[C@H]6[C@H](C)CC[C@@H]([C@H]3C)[C@@]46OO5)cc2)c(OC)c1OC | inhibition of growth at 30 µM: 36.2

***
For record CCOc1cc(/C=C/C(=O)c2ccc(OCCO[C@H]3O[C@@H]4O[C@@]5(C)CC[C@H]6[C@H](C)CC[C@@H]([C@H]3C)[C@@]46OO5)cc2)ccc1O the listed inhibition of growth at 30 µM is 49.4

Record summary for COc1ccc(/C=C/C(=O)c2ccc(OCCO[C@H]3O[C@@H]4O[C@@]5(C)CC[C@H]6[C@H](C)CC[C@@H]([C@H]3C)[C@@]46OO5)cc2)c(OC)c1 : reported inhibition of growth at 30 µM = 24.8

The value of inhibition of growth at 30 µM measured for the molecule COc1ccc(C(=O)/C=C/c2ccc(OCCO[C@H]3O[C@@H]4O[C@@]5(C)CC[C@H]6[C@H](C)CC[C@@H]([C@H]3C)[C@@]46OO5)cc2)cc1Cl turned out to be 51.1
